assay: Cmax in Rattus norvegicus (rat) at 2 mg/kg, po; format: ADME, organism-based; parameters: dose 2 mg/kg, route oral; details: in vivo

| Compound | Unit Descriptor | Cmax |
| --- | --- | --- |
| COc1cc(C)ccc1S(=O)(=O)NC(=O)[C@@H](c1ccc2c(c1)OCO2)c1cn(C)c2cc(CO)ccc12 | ng/mL | 48 |

====

molecular target: Endothelin-1 receptor (Homo sapiens)
Sequence (P25101 whole entry): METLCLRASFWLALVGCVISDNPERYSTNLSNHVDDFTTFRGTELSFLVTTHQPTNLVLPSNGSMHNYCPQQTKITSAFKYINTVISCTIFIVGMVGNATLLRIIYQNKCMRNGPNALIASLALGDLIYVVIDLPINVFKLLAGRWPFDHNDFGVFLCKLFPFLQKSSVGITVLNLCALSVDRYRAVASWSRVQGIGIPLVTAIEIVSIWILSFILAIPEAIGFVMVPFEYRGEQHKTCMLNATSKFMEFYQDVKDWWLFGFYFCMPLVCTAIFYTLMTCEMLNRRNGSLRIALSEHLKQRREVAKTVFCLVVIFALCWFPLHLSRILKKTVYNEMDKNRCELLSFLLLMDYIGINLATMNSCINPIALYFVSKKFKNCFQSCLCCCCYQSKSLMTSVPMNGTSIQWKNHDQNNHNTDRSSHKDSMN

| Compound | Ki (nM) |
| --- | --- |
| COc1cc(C)ccc1S(=O)(=O)NC(=O)[C@@H](c1ccc2c(c1)OCO2)c1cn(C)c2cc(CO)ccc12 | 2.2 |

====

experiment: Inhibition of endothelin converting enzyme (unknown origin); parameters: species or system Homo sapiens

| Compound | IC50, µM |
| --- | --- |
| COc1cc(C)ccc1S(=O)(=O)NC(=O)[C@@H](c1ccc2c(c1)OCO2)c1cn(C)c2cc(CO)ccc12 | 765 |
| COc1cc(C)ccc1S(=O)(=O)NC(=O)[C@@H](c1ccc2c(c1)OCO2)c1cn(C)c2cc(C(=O)O)ccc12 | 325 |

====

test: Drug absorption in Rattus norvegicus Sprague-Dawley (rat) at 2 mg/kg, iv; format: ADME, organism-based; parameters: dose 2 mg/kg, route intravenous; conditions: in vivo, read-out: Drug absorption

| Compound | Fa |
| --- | --- |
| COc1cc(C)ccc1S(=O)(=O)NC(=O)C(c1ccc2c(c1)OCO2)c1cn(C)c2cc(F)ccc12 (racemic) | 100% |
| COc1cc(C)ccc1S(=O)(=O)NC(=O)C(c1ccc2c(c1)OCO2)c1cn(C)c2cc(C(N)=O)ccc12 (racemic) | < 5% |
| COc1cc(C)ccc1S(=O)(=O)NC(=O)C(c1ccc2c(c1)OCO2)c1cn(C)c2cc(CO)ccc12 (stereo unspecified) | 55% |
| COc1cc(C)ccc1S(=O)(=O)NC(=O)C(c1ccc2c(c1)OCO2)c1cn(C)c2cc(C(C)=O)ccc12 (racemic) | 70% |
| COc1cc(C)ccc1S(=O)(=O)NC(=O)C(c1ccc2c(c1)OCO2)c1cn(C)c2cc(C(=O)O)ccc12 (racemic) | < 5% |
| Cn1cc(C(C(=O)NS(=O)(=O)c2ccc(CC(=O)O)cc2)c2ccc3c(c2)OCO3)c2ccc(C(N)=O)cc21 (racemic) | < 5% |

====

Collected CL free values appear next to each entry.
system: Rattus norvegicus; assay: Unbound clearance in Rattus norvegicus Sprague-Dawley (rat) at 2 mg/kg, iv; type: ADME, organism-based; set-up: dose 2 mg/kg, route intravenous; conditions: in vivo
Parameter Measured: CL free (mL/min/kg)

| Compound | Experimental System | Parameter Measured | Experimental Value |
| --- | --- | --- | --- |
| COc1cc(C)ccc1S(=O)(=O)NC(=O)C(c1ccc2c(c1)OCO2)c1cn(C)c2cc(C(=O)O)ccc12 (racemic) | Rattus norvegicus | CL free | 609 |
| Cn1cc(C(C(=O)NS(=O)(=O)c2ccc(CC(=O)O)cc2)c2ccc3c(c2)OCO3)c2ccc(C(N)=O)cc21 (racemic) | Rattus norvegicus | CL free | 138 |
| COc1cc(C)ccc1S(=O)(=O)NC(=O)C(c1ccc2c(c1)OCO2)c1cn(C)c2cc(CO)ccc12 (configuration not stated) | Rattus norvegicus | CL free | 7200 |
| COc1cc(C)ccc1S(=O)(=O)NC(=O)C(c1ccc2c(c1)OCO2)c1cn(C)c2cc(C(N)=O)ccc12 (racemic) | Rattus norvegicus | CL free | 1329 |
| COc1cc(C)ccc1S(=O)(=O)NC(=O)C(c1ccc2c(c1)OCO2)c1cn(C)c2cc(F)ccc12 (racemic) | Rattus norvegicus | CL free | 1740 |
| COc1cc(C)ccc1S(=O)(=O)NC(=O)C(c1ccc2c(c1)OCO2)c1cn(C)c2cc(C#N)ccc12 (racemic) | Rattus norvegicus | CL free | 19000 |
| COc1cc(C)ccc1S(=O)(=O)NC(=O)C(c1ccc2c(c1)OCO2)c1cn(C)c2cc(C(C)=O)ccc12 (racemic) | Rattus norvegicus | CL free | 17000 |

====

assay: Half life in Canis lupus familiaris (dog) liver microsome at 1 uM; format: ADME; settings: liver microsomes
Parameter Measured: half-life at 1 µM

| Compound | Parameter Measured | Experimental Value |
| --- | --- | --- |
| COc1cc(C)ccc1S(=O)(=O)NC(=O)[C@@H](c1ccc2c(c1)OCO2)c1cn(C)c2cc(CO)ccc12 | half-life at 1 µM | > 2 h |

====

assay: Permeability of the compound across Homo sapiens (human) Caco2 cells; assay type: ADME, cell-based; conditions: Caco-2, read-out: permeability
Parameter Measured: Papp (×10⁻⁶ cm/s)

| Compound | Parameter Measured | Qualifier | Experimental Value |
| --- | --- | --- | --- |
| COc1cc(C)ccc1S(=O)(=O)NC(=O)C(c1ccc2c(c1)OCO2)c1cn(C)c2cc(C(=O)O)ccc12 (racemic) | Papp | < | 0.5 |
| COc1cc(C)ccc1S(=O)(=O)NC(=O)C(c1ccc2c(c1)OCO2)c1cn(C)c2cc(C(C)=O)ccc12 (racemic) | Papp | = | 20 |
| COc1cc(C)ccc1S(=O)(=O)NC(=O)C(c1ccc2c(c1)OCO2)c1cn(C)c2cc(C#N)ccc12 (racemic) | Papp | = | 20 |

====

assay: Tmax in Rattus norvegicus (rat) at 2 mg/kg, po; format: ADME, organism-based; set-up: dose 2 mg/kg, route oral; settings: in vivo

| Compound | Tmax, min |
| --- | --- |
| COc1cc(C)ccc1S(=O)(=O)NC(=O)[C@@H](c1ccc2c(c1)OCO2)c1cn(C)c2cc(CO)ccc12 | 15 |

====

target: Endothelin receptor type B (Homo sapiens); assay: Displacement of [I125]ET1 from Homo sapiens (human) ETB receptor expressed in CHO cells
Sequence (P24530 whole entry): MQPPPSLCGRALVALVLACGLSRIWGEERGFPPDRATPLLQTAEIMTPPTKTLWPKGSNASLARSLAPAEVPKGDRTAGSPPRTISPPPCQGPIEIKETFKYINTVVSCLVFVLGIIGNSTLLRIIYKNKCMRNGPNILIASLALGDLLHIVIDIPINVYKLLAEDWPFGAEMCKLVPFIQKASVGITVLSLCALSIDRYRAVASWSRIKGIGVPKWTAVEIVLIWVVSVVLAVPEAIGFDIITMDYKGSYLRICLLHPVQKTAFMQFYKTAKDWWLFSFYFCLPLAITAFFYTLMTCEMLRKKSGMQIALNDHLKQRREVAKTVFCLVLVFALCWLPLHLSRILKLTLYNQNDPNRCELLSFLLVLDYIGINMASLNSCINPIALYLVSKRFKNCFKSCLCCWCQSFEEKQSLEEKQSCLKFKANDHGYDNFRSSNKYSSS
pIC50: −log10 of the molar value.

| Compound | pIC50 |
| --- | --- |
| COc1cc(C)ccc1S(=O)(=O)NC(=O)[C@@H](c1ccc2c(c1)OCO2)c1cn(C)c2cc(C(=O)O)ccc12 | 6.46 |
| Cn1cc(C(C(=O)NS(=O)(=O)c2ccc(CC(=O)O)cc2)c2ccc3c(c2)OCO3)c2ccc(C(N)=O)cc21 (racemic) | 6.24 |
| CCn1cc(C(C(=O)NS(=O)(=O)c2ccc(C(C)C)cc2)c2ccc3c(c2)OCO3)c2ccc(C(=O)O)cc21 (racemic) | 7.16 |
| COc1cc(C)ccc1S(=O)(=O)NC(=O)C(c1ccc2c(c1)OCO2)c1cn(C)c2cc(CO)ccc12 (centres undefined) | 6.61 |
| COc1cc(C)ccc1S(=O)(=O)NC(=O)C(c1ccc2c(c1)OCO2)c1cn(C)c2cc(C#N)ccc12 (racemic) | 6.38 |
| CC(C)c1ccc(S(=O)(=O)NC(=O)C(c2ccc3c(c2)OCO3)c2cn(C)c3cc(C(N)=O)ccc23)cc1 (racemic) | 7.82 |
| COc1cc(C)ccc1S(=O)(=O)NC(=O)C(c1ccc2c(c1)OCO2)c1cn(C)c2cc(F)ccc12 (racemic) | 6.66 |
| COc1cc(C)ccc1S(=O)(=O)NC(=O)C(c1ccc2c(c1)OCO2)c1cn(C)c2cc(C(N)=O)ccc12 (racemic) | 6.56 |
| COc1cc(C)ccc1S(=O)(=O)NC(=O)[C@@H](c1ccc2c(c1)OCO2)c1cn(C)c2cc(CO)ccc12 | 6.17 |
| COc1cc(C)ccc1S(=O)(=O)NC(=O)C(c1ccc2c(c1)OCO2)c1cn(C)c2cc(C(C)=O)ccc12 (racemic) | 6.04 |
| CCOC(=O)c1ccc2c(C(C(=O)NS(=O)(=O)c3ccc(C)cc3OC)c3ccc4c(c3)OCO4)cn(C)c2c1 (racemic) | 6.62 |
| COc1cc(C)ccc1S(=O)(=O)NC(=O)C(c1ccc2c(c1)OCO2)c1cn(C)c2cc(C(=O)O)ccc12 (racemic) | 6.19 |
| COc1cc(C)ccc1S(=O)(=O)NC(=O)C(c1ccc2c(c1)OCO2)c1cn(C)c2cc(Cl)ccc12 (racemic) | 6.66 |
| COCc1ccc2c(C(C(=O)NS(=O)(=O)c3ccc(C)cc3OC)c3ccc4c(c3)OCO4)cn(C)c2c1 (racemic) | 5.94 |

====

experiment: Elimination half life in Rattus norvegicus (rat) at 2 mg/kg, iv; assay type: ADME, organism-based; set-up: dose 2 mg/kg, route intravenous; conditions: in vivo, read-out: beta t1/2 (converted)

| Compound | half-life |
| --- | --- |
| COc1cc(C)ccc1S(=O)(=O)NC(=O)[C@@H](c1ccc2c(c1)OCO2)c1cn(C)c2cc(CO)ccc12 | 66 min |

====

experiment: Volume of distribution in Rattus norvegicus Sprague-Dawley (rat) at 2 mg/kg, iv; type: ADME, organism-based; design: dose 2 mg/kg, route intravenous; details: in vivo
Vd less than 3 L/kg is Yes; Vd greater than or equal to 3 L/kg is No.

| Compound | Qualitative Label |
| --- | --- |
| Cn1cc(C(C(=O)NS(=O)(=O)c2ccc(CC(=O)O)cc2)c2ccc3c(c2)OCO3)c2ccc(C(N)=O)cc21 (racemic) | Yes |
| COc1cc(C)ccc1S(=O)(=O)NC(=O)C(c1ccc2c(c1)OCO2)c1cn(C)c2cc(F)ccc12 (racemic) | No |
| COc1cc(C)ccc1S(=O)(=O)NC(=O)C(c1ccc2c(c1)OCO2)c1cn(C)c2cc(C(C)=O)ccc12 (racemic) | No |
| COc1cc(C)ccc1S(=O)(=O)NC(=O)C(c1ccc2c(c1)OCO2)c1cn(C)c2cc(C(=O)O)ccc12 (racemic) | Yes |
| COc1cc(C)ccc1S(=O)(=O)NC(=O)C(c1ccc2c(c1)OCO2)c1cn(C)c2cc(C#N)ccc12 (racemic) | Yes |
| COc1cc(C)ccc1S(=O)(=O)NC(=O)C(c1ccc2c(c1)OCO2)c1cn(C)c2cc(C(N)=O)ccc12 (racemic) | Yes |
| COc1cc(C)ccc1S(=O)(=O)NC(=O)C(c1ccc2c(c1)OCO2)c1cn(C)c2cc(CO)ccc12 (configuration not stated) | Yes |
